Cited source: the supplement of paper PMC9694430

Test system: LOC_OS07G06570-cb004
Experiment: thermal shift delta Tm vs DMSO control; higher = stronger stabilization (binding);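 note: purified Escherichia coli-expressed rice kinase domain construct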
Settings: 12.5 µM; protein concentration 2 µM
Would you mind telling me the reported thermal shift delta Tm of each entry?
Numbers only, in °C.

The following compounds have reported results that may help.
CC(C)(C)NC(=O)c1cncn1C1CCN(c2ccc(-c3nnc(C(F)(F)F)o3)cn2)CC1	1.08
COCCOc1cnc2ccn([C@H](C)c3nnc4c(F)cc(-c5cnn(C)c5)cn34)c(=O)c2c1	1.07
CS(=O)(=O)CCNCc1ccc(-c2ccc3ncnc(Nc4ccc(OCc5cccc(F)c5)c(Cl)c4)c3c2)o1	0.83

State the recorded thermal shift delta Tm for every item in the following list.
1. O=C1Nc2ccc(I)cc2/C1=C/c1cc(Br)c(O)c(Br)c1
2. COc1ccc(Cl)cc1NC(=O)Nc1cc(C)nc2ccccc12

[1.22, 0.61]

* * *

System: LOC_OS02G07810-cb001
Test: thermal shift delta Tm vs DMSO control; higher = stronger stabilization (binding)
Settings: 12.5 µM; protein concentration 2 µM
Test Readout: thermal shift delta Tm (°C)
Numbers only, in °C.

COc1cc2c(cc1OC)[C@@H]1C(=O)c3ccc4c(c3O[C@@H]1CO2)C=CC(C)(C)O4 [Deguelin]	0.57
CC(C)=CC[C@@H](O)C1=CC(=O)c2c(O)ccc(O)c2C1=O [Shikonin]	0.63
COc1ccc(Cl)c(Nc2nc3ccccc3nc2NS(=O)(=O)c2cccc(NC(=O)C(C)(C)N)c2)c1 [Pilaralisib (XL147)]	1.84

The measured thermal shift delta Tm associated with Cc1ccc(NC(=O)c2ccc(CN3CC[C@H](N(C)C)C3)c(C(F)(F)F)c2)cc1Nc1nccc(-c2cncnc2)n1 [Bafetinib (INNO-406)] reads 0.39

* * *

Tested on: LOC_OS04G38480-cb003
Sequence (as listed by the source): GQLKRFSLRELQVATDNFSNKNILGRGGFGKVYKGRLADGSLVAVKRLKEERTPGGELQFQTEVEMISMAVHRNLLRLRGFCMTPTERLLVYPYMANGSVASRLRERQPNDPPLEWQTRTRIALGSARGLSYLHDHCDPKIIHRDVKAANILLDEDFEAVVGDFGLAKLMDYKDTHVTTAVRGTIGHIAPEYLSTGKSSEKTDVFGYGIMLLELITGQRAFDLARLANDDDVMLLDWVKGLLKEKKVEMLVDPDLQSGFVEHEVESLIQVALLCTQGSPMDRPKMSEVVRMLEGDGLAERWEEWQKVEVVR
Test: thermal shift delta Tm vs DMSO control; higher = stronger stabilization (binding)
Settings: 12.5 µM; protein concentration 2 µM
Could you please classify the records by thermal shift delta Tm using these ranges: low: < 0.6 °C; intermediate: ≥ 0.6 °C and < 1 °C; high: ≥ 1 °C

Solved entries (count: 5):
O=c1c(O)c(-c2ccc(O)c(O)c2)oc2cc(O)cc(O)c12	high
CN(C)C/C=C/C(=O)Nc1cc2c(Nc3ccc(F)c(Cl)c3)ncnc2cc1O[C@H]1CCOC1 [Afatinib (BIBW2992)]	intermediate
Oc1ccc(Nc2nc(-c3ccc(Cl)cc3)cs2)cc1	low
Cc1cc(C(=O)NOCCO)c(Nc2ccc(I)cc2F)n(C)c1=O	intermediate
CNC(=O)c1nn(C)c2c1C(C)(C)Cc1cnc(Nc3ccc(N4CCN(C)CC4)cc3)nc1-2	high

Band for the recorded thermal shift delta Tm of NC(=O)c1ncn([C@@H]2O[C@H](CO)[C@@H](O)[C@H]2O)c1N ?
low

Band for the recorded thermal shift delta Tm of O=C(NOC[C@H](O)CO)c1ccc(F)c(F)c1Nc1ccc(I)cc1F ?
intermediate

Band for the recorded thermal shift delta Tm of CN1CCN(c2nc(C3=C(c4c[nH]c5ccccc45)C(=O)NC3=O)c3ccccc3n2)CC1 ?
intermediate

Band for the recorded thermal shift delta Tm of CC(C)(C)Cn1c(N)nc2ccc(-c3[nH]c(C(C)(C)C)nc3-c3ccc(F)cc3)nc21 ?
low

Band for the recorded thermal shift delta Tm of COc1cc2c(cc1OC)[C@@H]1C(=O)c3ccc4c(c3O[C@@H]1CO2)C=CC(C)(C)O4 ?
high

Band for the recorded thermal shift delta Tm of Cc1ccccc1CN1C2=NCCN2C(=O)C2=C1CCN(Cc1ccccc1)C2 ?
low

Band for the recorded thermal shift delta Tm of Nc1cccc(S(=O)(=O)N2CCCN(S(=O)(=O)c3ccc4c(c3)OCCO4)CC2)c1 ?
high
